molecular target: CB1 receptor (Rattus norvegicus, UniProt P20272); construct: Whole rat brains or dissected regions from live CD rats; tissue Charles River or Pel-Freez Biologicals; host or cells: whole rat brain (CD rats), P2 membrane; assay: Radioligand displacement in whole rat brain (CB1) membrane preparations; format: binding; conditions: Ki, displacement of 3H-CP55940, whole rat brain membranes; radioligand 3H-CP55940; Tables 1 and 2
pKi: −log10 of the molar value.
Classify as follows. Reported pKi greater than or equal to 7: Yes. Reported pKi below: No.

Sample answers from the record:
CCCCCCC(C)(C)NC(=O)c1nn(-c2ccc(Cl)cc2Cl)c(-c2ccc(Cl)cc2)c1C    No
CCCCCCCNC(=O)c1nn(-c2ccc(Cl)cc2Cl)c(-c2ccc(Cl)cc2)c1C    Yes

Consider now this further compound.
Ask: Is it the case that CCCCCCCCCNC(=O)c1nn(-c2ccc(Cl)cc2Cl)c(-c2ccc(Cl)cc2)c1C has pKi reaching or exceeding 7?
Result: No

----------
biological target: G-protein-linked cannabinoid receptors (Rattus norvegicus); construct: tissue Charles River or Pel-Freez Biologicals; host or cells: whole rat brain crude membrane homogenate; assay: GTP-γ-[35S] binding in whole rat brain; assay type: biochemical; settings: whole rat brain membranes; effects reported as percent change from basal; read-out: Emax, GTP-γ-[35S] in Whole Rat Brain
Sequence (P20272 whole entry): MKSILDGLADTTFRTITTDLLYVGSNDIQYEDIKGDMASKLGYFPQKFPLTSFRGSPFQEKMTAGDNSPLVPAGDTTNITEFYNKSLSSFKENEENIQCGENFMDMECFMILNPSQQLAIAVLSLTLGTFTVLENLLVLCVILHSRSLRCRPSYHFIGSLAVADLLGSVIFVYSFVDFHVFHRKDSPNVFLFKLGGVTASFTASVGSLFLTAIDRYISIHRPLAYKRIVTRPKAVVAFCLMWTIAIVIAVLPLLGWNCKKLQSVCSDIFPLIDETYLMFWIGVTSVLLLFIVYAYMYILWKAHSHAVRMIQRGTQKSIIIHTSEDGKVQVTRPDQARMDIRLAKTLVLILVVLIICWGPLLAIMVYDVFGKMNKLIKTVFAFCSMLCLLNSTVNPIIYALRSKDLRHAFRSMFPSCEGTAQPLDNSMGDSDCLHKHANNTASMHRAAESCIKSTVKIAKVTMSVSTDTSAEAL
ASSAY_ENDPOINT: Emax (%)
// units = %; emit number, no label

// below: answered molecules
Cc1c(C(=O)NCC(C)C)nn(-c2ccc(Cl)cc2Cl)c1-c1ccc(Cl)cc1 [MF9725-68-10]    -11
CCCNC(=O)c1nn(-c2ccc(Cl)cc2Cl)c(-c2ccc(Cl)cc2)c1C [MF9725-55C]    -35.7
Cc1c(C(=O)NCCO)nn(-c2ccc(Cl)cc2Cl)c1-c1ccc(Cl)cc1 [MF9725-93-31]    -76.5

Turning now to a further molecule:
Ask: Which value of Emax has been reported for CCCCNC(=O)c1nn(-c2ccc(Cl)cc2Cl)c(-c2ccc(Cl)cc2)c1C [MF9725-64-17] in the records?
Result: -38.5

----------
target: human CB1 receptor (Homo sapiens); construct: expressed in transfected cells; host or cells: HEK-293; experiment: Radioligand displacement in human CB1 receptor-transfected cells (HEK-293); type: binding; conditions: human CB1 transfected cells; 3H-WIN55212-2; Table 5, parallel synthesis analogs
Sequence (P21554 whole entry): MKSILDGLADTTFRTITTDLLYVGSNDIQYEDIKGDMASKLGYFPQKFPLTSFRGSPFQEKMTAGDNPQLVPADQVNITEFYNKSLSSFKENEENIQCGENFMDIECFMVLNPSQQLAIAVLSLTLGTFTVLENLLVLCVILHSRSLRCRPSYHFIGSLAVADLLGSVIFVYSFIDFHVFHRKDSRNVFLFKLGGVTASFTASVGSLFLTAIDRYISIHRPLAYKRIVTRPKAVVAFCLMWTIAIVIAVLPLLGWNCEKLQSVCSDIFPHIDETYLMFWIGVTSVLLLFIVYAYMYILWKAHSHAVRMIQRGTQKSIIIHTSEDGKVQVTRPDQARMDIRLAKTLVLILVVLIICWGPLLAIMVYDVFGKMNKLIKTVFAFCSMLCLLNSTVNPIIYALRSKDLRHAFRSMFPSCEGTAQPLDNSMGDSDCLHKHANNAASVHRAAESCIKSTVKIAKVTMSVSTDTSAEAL
This listing pairs compounds with measured Max. Disp. %, 3H-WIN55212-2.

Ask: Which value of Max. Disp. %, 3H-WIN55212-2 has been reported for COc1ccc(NC(=O)c2nn(-c3ccc(Cl)cc3Cl)c(-c3ccc(Cl)cc3)c2C)cc1 [AN-2] in the records?
Result: 68.1%

Ask: Query CCC(C)CC(C)NC(=O)c1nn(-c2ccc(Cl)cc2Cl)c(-c2ccc(Cl)cc2)c1C (centres unmarked) [AKS-10262-6] next
Result: 78.7%

Ask: Query CCCCCCCCCC(C)NC(=O)c1nn(-c2ccc(Cl)cc2Cl)c(-c2ccc(Cl)cc2)c1C (centres unmarked) [AKS-10262-3] next
Result: 76.1%

Ask: Query CCCCCCCCCCCCNC(=O)c1nn(-c2ccc(Cl)cc2Cl)c(-c2ccc(Cl)cc2)c1C [BT-2] next
Result: 31.4%

Ask: Query CCCCCC(CC)NC(=O)c1nn(-c2ccc(Cl)cc2Cl)c(-c2ccc(Cl)cc2)c1C (centres unmarked) [AKS-10262-5] next
Result: 100%

Ask: Query Cc1c(C(=O)NC(C)CCC(C)C)nn(-c2ccc(Cl)cc2Cl)c1-c1ccc(Cl)cc1 (centres unmarked) [AKS-10262-8] next
Result: 91.5%

Ask: Query Cc1c(C(=O)N2CCc3ccccc3C2)nn(-c2ccc(Cl)cc2Cl)c1-c1ccc(Cl)cc1 [AM-50] next
Result: 74.6%

Ask: Query CCCCCCCCCCCNC(=O)c1nn(-c2ccc(Cl)cc2Cl)c(-c2ccc(Cl)cc2)c1C [BT-7] next
Result: 54.9%
